These entries and their values trace back to BindingDB's records for PubMed 35671625.

Molecular target: Beta-2 adrenergic receptor (Homo sapiens, UniProt P07550)
Sequence (P07550 whole entry): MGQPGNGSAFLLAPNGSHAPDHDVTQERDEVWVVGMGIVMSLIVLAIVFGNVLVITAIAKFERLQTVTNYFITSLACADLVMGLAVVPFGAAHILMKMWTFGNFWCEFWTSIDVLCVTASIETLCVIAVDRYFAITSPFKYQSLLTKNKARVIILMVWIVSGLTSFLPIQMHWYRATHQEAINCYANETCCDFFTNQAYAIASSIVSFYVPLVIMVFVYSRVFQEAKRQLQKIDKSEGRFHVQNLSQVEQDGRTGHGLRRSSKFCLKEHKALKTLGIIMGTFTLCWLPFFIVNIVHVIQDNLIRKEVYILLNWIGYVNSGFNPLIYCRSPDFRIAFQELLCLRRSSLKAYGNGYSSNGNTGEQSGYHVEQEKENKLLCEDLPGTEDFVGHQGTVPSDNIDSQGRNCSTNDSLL
MEASURE: Kd (nM)

MOLECULE	MEASURE	RESULT_UNIT	OBS_VALUE
CNC(C)Cc1ccccc1OC (stereo unspecified)	Kd	nM	2.1
